Answer each item with its documented pKi.
Biological target: Hepatitis C virus serine protease, NS3/NS4A (Hepatitis C virus, UniProt A3EZI9+D2K2A8)
Sequence (D2K2A8 whole entry): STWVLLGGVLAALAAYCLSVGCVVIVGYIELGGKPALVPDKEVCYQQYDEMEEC
Sequence (A3EZI9 whole entry): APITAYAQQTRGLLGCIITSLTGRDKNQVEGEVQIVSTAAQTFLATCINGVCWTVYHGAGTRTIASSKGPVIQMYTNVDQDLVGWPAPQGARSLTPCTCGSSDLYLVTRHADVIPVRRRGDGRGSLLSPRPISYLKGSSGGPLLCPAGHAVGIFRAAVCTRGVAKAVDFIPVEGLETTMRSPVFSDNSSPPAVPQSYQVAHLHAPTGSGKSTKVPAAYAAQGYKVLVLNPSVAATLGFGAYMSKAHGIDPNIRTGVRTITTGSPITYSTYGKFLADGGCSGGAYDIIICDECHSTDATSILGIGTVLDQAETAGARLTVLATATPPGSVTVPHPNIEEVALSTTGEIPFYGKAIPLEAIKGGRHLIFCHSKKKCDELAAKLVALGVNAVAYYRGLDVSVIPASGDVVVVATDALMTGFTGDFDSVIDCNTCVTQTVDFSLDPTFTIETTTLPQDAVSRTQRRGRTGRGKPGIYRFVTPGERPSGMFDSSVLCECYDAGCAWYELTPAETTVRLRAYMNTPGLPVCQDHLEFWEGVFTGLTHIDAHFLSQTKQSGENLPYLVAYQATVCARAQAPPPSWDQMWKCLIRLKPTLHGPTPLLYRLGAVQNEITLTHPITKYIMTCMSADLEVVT
Assay: Inhibition of HCV serine protease NS3/NS4A in the presence of EDTA.
Format: protein-complex assay, Hepacivirus hominis
Give bare numbers, as −log10 of the molar value.

Known results for compounds:
Compound	Observed measurement
Cn1c(C(F)(F)c2nc3c(F)c(F)cc(F)c3[nH]2)nc2ccc(C(=O)NC(CP(=O)(O)O)C(=O)O)cc21 (configuration not stated)	4.92
Cn1c(C(F)(F)c2nc3cc(F)ccc3[nH]2)nc2ccc(C(=O)NC(CP(=O)(O)O)C(=O)O)cc21 (configuration not stated)	4.26

Fill in pKi for each of the 4 compounds listed.
1. Cn1c(C(F)(F)c2nc3ccccc3[nH]2)nc2ccc(C(=O)NC(CP(=O)(O)O)C(=O)NC(CP(=O)(O)O)C(=O)O)cc21 (configuration not stated)
2. Cn1c(C(F)c2nc3c(F)cc(F)cc3[nH]2)nc2ccc(C(=O)NC(CP(=O)(O)O)C(=O)O)cc21 (configuration not stated)
3. Cn1c(C(F)(F)c2nc3ccc(C(=O)NC(CP(=O)(O)O)C(=O)O)cc3[nH]2)nc2ccc(C(=O)NC(CP(=O)(O)O)C(=O)NC(CP(=O)(O)O)C(=O)O)cc21 (configuration not stated)
4. Cn1c(C(F)(F)c2nc3ccc(C(N)=O)cc3[nH]2)nc2ccc(C(=O)NC(CP(=O)(O)O)C(=O)O)cc21 (configuration not stated)

Resp:
1: 4.71; 2: 4.04; 3: 6.00; 4: 4.13

====

Biological target: Hepatitis C virus serine protease, NS3/NS4A (Hepatitis C virus, UniProt A3EZI9+D2K2A8)
Assay: Inhibition of HCV serine protease NS3/NS4A in the presence of EDTA.
Format: protein-complex assay, Hepacivirus hominis
Threshold check on Ki: strictly below 40 µM is label 1; on or above 40 µM is label 0.

Solved entries:
                                   compound                              assay_target  qualitative_label
0  COc1cccc2[nH]c(Cc3nc4ccc(C(=O)NC(CP(=O)(O)O)C(=O)O)cc4n3C)nc12 (stereo not given)  Hepatitis C virus serine protease, NS3/NS4A (Hepatitis C virus, UniProt A3EZI9+D2K2A8)            label 1
1  Cn1c(C(F)(F)c2nc3ccc(Cl)cc3[nH]2)nc2ccc(C(=O)NC(CP(=O)(O)O)C(=O)O)cc21 (stereo not given)  Hepatitis C virus serine protease, NS3/NS4A (Hepatitis C virus, UniProt A3EZI9+D2K2A8)            label 1
2  O=C(NC(CP(=O)(O)O)C(=O)O)c1ccc2nc(Cc3nc4ccccc4[nH]3)n(CC3CC3)c2c1 (stereo not given)  Hepatitis C virus serine protease, NS3/NS4A (Hepatitis C virus, UniProt A3EZI9+D2K2A8)            label 0
3  Cn1c(C(F)(F)c2nc3cc(F)c(F)cc3[nH]2)nc2ccc(C(=O)NC(CP(=O)(O)O)C(=O)O)cc21 (stereo not given)  Hepatitis C virus serine protease, NS3/NS4A (Hepatitis C virus, UniProt A3EZI9+D2K2A8)            label 1

As a next step, examine the compound that follows.
Req: Please indicate whether the reported Ki of Cn1c(Cc2nc3c(F)c(F)c(F)cc3[nH]2)nc2ccc(C(=O)NC(CP(=O)(O)O)C(=O)O)cc21 (stereo not given) is strictly below 40 µM.
Resp: label 1
